Listed below: Emission range in parenthesis values for each entry.
experiment_description: Steady-state fluorescence spectroscopy (excitation and emission spectra)
Format: physicochemical
condition_label: acetonitrile/2% DMSO

compound	data_value
O=C(O)c1ccc(-c2nn(-c3ccc(C(=O)O)cc3)c3ccccc23)cc1 [4b, 1,3-Bis-(4-carboxyphenyl)-1H-indazole]	360-500 nm
NC(=O)c1ccc(-c2nn(-c3ccc(C(=O)O)cc3)c3ccc([N+](=O)[O-])cc23)cc1 [4l]	450-620 nm
O=C(O)c1ccc(-n2nc(-c3ccc([N+](=O)[O-])cc3)c3ccccc32)cc1 [4f]	470-670 nm

Consider the record given below.
// returns reported Emission range in parenthesis for input NC(=O)c1ccc(-n2nc(-c3ccc(C(=O)NCCCNC(=O)CCCCC4SCC5NC(=O)NC54)cc3)c3ccccc32)cc1 (stereo not shown) [compound 8]
360-480 nm

====

experiment_description: UV-Vis absorption spectroscopy
Format: physicochemical
condition_label: acetonitrile/2% DMSO
reported_property: ε (at absorption λmax) (M⁻¹ cm⁻¹)

compound	reported_property	data_value
O=C(O)c1ccc(-c2nn(-c3ccc([N+](=O)[O-])cc3)c3ccccc23)cc1 [4i]	ε (at absorption λmax)	31261
O=C(O)c1ccc(-n2nc(-c3ccc(Cl)cc3)c3ccc(Cl)cc32)cc1 [4g]	ε (at absorption λmax)	29157
COc1ccc(-c2nn(-c3ccc(C(=O)O)cc3)c3cc(OC)ccc23)cc1 [4h]	ε (at absorption λmax)	27650
NC(=O)c1ccc(-n2nc(-c3ccc(C(=O)NCCCNC(=O)CCCCC4SCC5NC(=O)NC54)cc3)c3ccccc32)cc1 (stereo not drawn) [compound 8]	ε (at absorption λmax)	32158

I. C=CCOC(=O)c1ccc(-c2nn(-c3ccc(C(=O)N[C@@H](CCCCNC(=O)CCCCC4SCC5NC(=O)NC54)C(=O)O)cc3)c3ccccc23)cc1 (stereo partly drawn) [compound 11]
II. O=C(O)c1ccc(-n2nc(-c3ccccc3)c3ccccc32)cc1 [4a]
Sorting by ε (at absorption λmax) in descending order, would I or II appear first? Identify your pick by its label.
I
(I: 34349 M⁻¹ cm⁻¹, II: 22569 M⁻¹ cm⁻¹)

====

experiment_description: UV-Vis absorption spectroscopy
Format: physicochemical
condition_label: acetonitrile/2% DMSO
reported_property: Absorption λmax (nm)

compound	data_value
O=C(O)c1ccc(-n2nc(-c3ccccc3)c3ccccc32)cc1 [4a]	328
O=C(O)c1ccc(-n2nc(-c3ccc(Cl)cc3)c3ccc(Cl)cc32)cc1 [4g]	328
COc1ccc(-c2nn(-c3ccc(C(=O)O)cc3)c3cc(OC)ccc23)cc1 [4h]	327
O=C(O)c1ccc(-c2nn(-c3ccc([N+](=O)[O-])cc3)c3ccccc23)cc1 [4i]	361
O=C(O)c1ccc(-n2nc(-c3ccc([N+](=O)[O-])cc3)c3ccccc32)cc1 [4f]	354
O=C(O)c1ccc(-c2nn(-c3ccc(C(=O)O)cc3)c3ccc([N+](=O)[O-])cc23)cc1 [4k]	328
COC(=O)c1ccc(-c2nn(-c3ccc(C(=O)O)cc3)c3ccccc23)cc1 [4d]	334
Cc1ccc2c(-c3ccc([N+](=O)[O-])cc3)nn(-c3ccc(C(=O)O)cc3)c2c1 [4j]	358
C=CCOC(=O)c1ccc(-c2nn(-c3ccc(C(=O)N[C@@H](CCCCNC(=O)CCCCC4SCC5NC(=O)NC54)C(=O)O)cc3)c3ccccc23)cc1 (some centres unmarked) [compound 11]	334
NC(=O)c1ccc(-c2nn(-c3ccc(C(=O)O)cc3)c3ccc([N+](=O)[O-])cc23)cc1 [4l]	326
C=CCOC(=O)c1ccc(-c2nn(-c3ccc(C(=O)O)cc3)c3ccccc23)cc1 [4e]	335
NC(=O)c1ccc(-c2nn(-c3ccc(C(=O)O)cc3)c3ccccc23)cc1 [4c]	332
O=C(O)c1ccc(-c2nn(-c3ccc(C(=O)O)cc3)c3ccccc23)cc1 [4b, 1,3-Bis-(4-carboxyphenyl)-1H-indazole]	334
NC(=O)c1ccc(-n2nc(-c3ccc(C(=O)NCCCNC(=O)CCCCC4SCC5NC(=O)NC54)cc3)c3ccccc32)cc1 (centres unmarked) [compound 8]	331

====

experiment_description: Steady-state fluorescence spectroscopy (excitation and emission spectra)
Format: physicochemical
condition_label: acetonitrile/2% DMSO
reported_property: Emission λmax (nm)

compound	unit_of_measurement	Emission λmax
NC(=O)c1ccc(-c2nn(-c3ccc(C(=O)O)cc3)c3ccc([N+](=O)[O-])cc23)cc1 [4l]	nm	527
Cc1ccc2c(-c3ccc([N+](=O)[O-])cc3)nn(-c3ccc(C(=O)O)cc3)c2c1 [4j]	nm	565
COc1ccc(-c2nn(-c3ccc(C(=O)O)cc3)c3cc(OC)ccc23)cc1 [4h]	nm	439
O=C(O)c1ccc(-c2nn(-c3ccc([N+](=O)[O-])cc3)c3ccccc23)cc1 [4i]	nm	551
O=C(O)c1ccc(-n2nc(-c3ccc([N+](=O)[O-])cc3)c3ccccc32)cc1 [4f]	nm	554
O=C(O)c1ccc(-c2nn(-c3ccc(C(=O)O)cc3)c3ccccc23)cc1 [4b, 1,3-Bis-(4-carboxyphenyl)-1H-indazole]	nm	396

====

Listed below: Emission range in parenthesis values for each entry.
experiment_description: Steady-state fluorescence spectroscopy (excitation and emission spectra)
Assay type: physicochemical
condition_label: acetonitrile/2% DMSO

molecule	Emission range in parenthesis
C=CCOC(=O)c1ccc(-c2nn(-c3ccc(C(=O)O)cc3)c3ccccc23)cc1	360-480 nm

// returns reported Emission range in parenthesis for input Cc1ccc2c(-c3ccc([N+](=O)[O-])cc3)nn(-c3ccc(C(=O)O)cc3)c2c1
490-700 nm

// returns reported Emission range in parenthesis for input COc1ccc(-c2nn(-c3ccc(C(=O)O)cc3)c3cc(OC)ccc23)cc1
370-600 nm

// returns reported Emission range in parenthesis for input C=CCOC(=O)c1ccc(-c2nn(-c3ccc(C(=O)N[C@@H](CCCCNC(=O)CCCCC4SCC5NC(=O)NC54)C(=O)O)cc3)c3ccccc23)cc1 (stereo partly shown)
370-480 nm

// returns reported Emission range in parenthesis for input O=C(O)c1ccc(-n2nc(-c3ccccc3)c3ccccc32)cc1
360-450 nm

// returns reported Emission range in parenthesis for input O=C(O)c1ccc(-c2nn(-c3ccc(C(=O)O)cc3)c3ccc([N+](=O)[O-])cc23)cc1
450-620 nm

// returns reported Emission range in parenthesis for input O=C(O)c1ccc(-n2nc(-c3ccc(Cl)cc3)c3ccc(Cl)cc32)cc1
350-450 nm

// returns reported Emission range in parenthesis for input COC(=O)c1ccc(-c2nn(-c3ccc(C(=O)O)cc3)c3ccccc23)cc1
360-500 nm

// returns reported Emission range in parenthesis for input O=C(O)c1ccc(-c2nn(-c3ccc([N+](=O)[O-])cc3)c3ccccc23)cc1
470-670 nm

// returns reported Emission range in parenthesis for input NC(=O)c1ccc(-c2nn(-c3ccc(C(=O)O)cc3)c3ccccc23)cc1
360-500 nm

====

experiment_description: Steady-state fluorescence spectroscopy (excitation and emission spectra)
Type: physicochemical
condition_label: acetonitrile/2% DMSO
reported_property: Excitation range in parenthesis

O=C(O)c1ccc(-c2nn(-c3ccc([N+](=O)[O-])cc3)c3ccccc23)cc1 320-420 nm
O=C(O)c1ccc(-n2nc(-c3ccc(Cl)cc3)c3ccc(Cl)cc32)cc1 310-350 nm
NC(=O)c1ccc(-c2nn(-c3ccc(C(=O)O)cc3)c3ccccc23)cc1 300-360 nm
O=C(O)c1ccc(-n2nc(-c3ccccc3)c3ccccc32)cc1 300-340 nm

Consider the record given below.
// returns reported Excitation range in parenthesis for input NC(=O)c1ccc(-c2nn(-c3ccc(C(=O)O)cc3)c3ccc([N+](=O)[O-])cc23)cc1
310-360 nm

====

experiment_description: Steady-state fluorescence spectroscopy (excitation and emission spectra)
Assay type: physicochemical
condition_label: acetonitrile/2% DMSO
reported_property: Emission λmax (nm)

molecule	reported_property	data_value
C=CCOC(=O)c1ccc(-c2nn(-c3ccc(C(=O)O)cc3)c3ccccc23)cc1 [4e]	Emission λmax	398
O=C(O)c1ccc(-n2nc(-c3ccc(Cl)cc3)c3ccc(Cl)cc32)cc1 [4g]	Emission λmax	364
C=CCOC(=O)c1ccc(-c2nn(-c3ccc(C(=O)N[C@@H](CCCCNC(=O)CCCCC4SCC5NC(=O)NC54)C(=O)O)cc3)c3ccccc23)cc1 (some centres unmarked) [compound 11]	Emission λmax	397
COC(=O)c1ccc(-c2nn(-c3ccc(C(=O)O)cc3)c3ccccc23)cc1 [4d]	Emission λmax	396
O=C(O)c1ccc(-c2nn(-c3ccc(C(=O)O)cc3)c3ccc([N+](=O)[O-])cc23)cc1 [4k]	Emission λmax	524
O=C(O)c1ccc(-n2nc(-c3ccccc3)c3ccccc32)cc1 [4a]	Emission λmax	396
NC(=O)c1ccc(-c2nn(-c3ccc(C(=O)O)cc3)c3ccccc23)cc1 [4c]	Emission λmax	393
NC(=O)c1ccc(-n2nc(-c3ccc(C(=O)NCCCNC(=O)CCCCC4SCC5NC(=O)NC54)cc3)c3ccccc32)cc1 (centres unmarked) [compound 8]	Emission λmax	394
